The measured values listed here are drawn from patent US7803930B2.

tested on: human apolipoprotein B mRNA; test: Inhibition of human apolipoprotein B mRNA levels in HepG2 cells, quantitative real-time PCR; type: cell-based; conditions: Table 13 gene walk; HepG2 cells, 50 nM; averages from two experiments
In the oligonucleotide strings, read from the 5' end, every base follows the letter of its sugar. An asterisk marks phosphorothioate; unmarked linkages are phosphodiester. Other units and linkages are bracketed, terminal groups are in braces. A string of capitals states the bases alone. e = 2'-O-(2-methoxyethyl) (MOE); [5mC] = 5-methylcytosine; d = 2'-deoxy (DNA)
Recorded Metric: % INHIB 50 nm (%)

INSERT INTO results (substance, recorded_metric, value) VALUES
  ('308622 (eG*e[5mC]*e[5mC]*eT*eT*d[5mC]*dT*dG*d[5mC]*dT*dT*dG*dA*dG*dT*eT*eA*e[5mC]*eA*eA; antisense) [compound 308622]', '% INHIB 50 nm', 25),
  ('308625 (e[5mC]*eT*eT*e[5mC]*eG*d[5mC]*dG*d[5mC]*d[5mC]*dT*dT*d[5mC]*dT*dG*d[5mC]*eT*eT*eG*eA*eG; antisense) [compound 308625]', '% INHIB 50 nm', 64),
  ('308624 (eT*e[5mC]*eG*e[5mC]*eG*d[5mC]*d[5mC]*dT*dT*d[5mC]*dT*dG*d[5mC]*dT*dT*eG*eA*eG*eT*eT; antisense) [compound 308624]', '% INHIB 50 nm', 69),
  ('308623 (eG*e[5mC]*eG*e[5mC]*e[5mC]*dT*dT*d[5mC]*dT*dG*d[5mC]*dT*dT*dG*dA*eG*eT*eT*eA*e[5mC]; antisense) [compound 308623]', '% INHIB 50 nm', 62),
  ('308627 (eT*e[5mC]*eA*eG*eT*d[5mC]*dT*dG*d[5mC]*dT*dT*d[5mC]*dG*d[5mC]*dG*e[5mC]*e[5mC]*eT*eT*e[5mC]; antisense) [compound 308627]', '% INHIB 50 nm', 67),
  ('308626 (eA*eG*eT*e[5mC]*eT*dG*d[5mC]*dT*dT*d[5mC]*dG*d[5mC]*dG*d[5mC]*d[5mC]*eT*eT*e[5mC]*eT*eG; antisense) [compound 308626]', '% INHIB 50 nm', 38),
  ('308628 (e[5mC]*e[5mC]*eT*e[5mC]*eA*dG*dT*d[5mC]*dT*dG*d[5mC]*dT*dT*d[5mC]*dG*e[5mC]*eG*e[5mC]*e[5mC]*eT; antisense) [compound 308628]', '% INHIB 50 nm', 61),
  ('308629 (eA*eG*e[5mC]*e[5mC]*eT*d[5mC]*dA*dG*dT*d[5mC]*dT*dG*d[5mC]*dT*dT*e[5mC]*eG*e[5mC]*eG*e[5mC]; antisense) [compound 308629]', '% INHIB 50 nm', 77);
